Settings: bacteroides intestinalis, 12 h, 2 µM
Description: The drug is tested on Bacteroides intestinalis strain: DSM17393 for biotransformation. The drug concentrations were measured before and after a 12-h incubation by liquid-chromatography-coupled mass spectrometry (LC–MS)
measured.property: Bacterial Biotransformation

Please review the following examples before continuing.
compound	Bacterial Biotransformation
CC(C)c1nc(N(C)S(C)(=O)=O)nc(-c2ccc(F)cc2)c1/C=C/[C@@H](O)C[C@@H](O)CC(=O)[O-].CC(C)c1nc(N(C)S(C)(=O)=O)nc(-c2ccc(F)cc2)c1/C=C/[C@@H](O)C[C@@H](O)CC(=O)[O-].[Ca+2]	Compound NOT metabolized
O=C(O)CCc1nc(-c2ccccc2)c(-c2ccccc2)o1	Compound metabolized
O=C(NC(Cc1cc(=O)[nH]c2ccccc12)C(=O)O)c1ccc(Cl)cc1 (configuration not stated) [REBAMIPIDE]	Compound NOT metabolized
CC(C)(C)NC(=O)[C@H]1CC[C@H]2[C@@H]3CC[C@H]4NC(=O)C=C[C@]4(C)[C@H]3CC[C@]12C [FINASTERIDE]	Compound NOT metabolized
OCCN1CCN(CCCN2c3ccccc3Sc3ccc(C(F)(F)F)cc32)CC1	Compound metabolized

Just so you know, measured Bacterial Biotransformation for CC(C)OC(=O)C(C)(C)Oc1ccc(C(=O)c2ccc(Cl)cc2)cc1 [FENOFIBRATE] came out at Compound NOT metabolized

Input c1ccc2[nH]c(-c3cscn3)nc2c1 . Output Bacterial Biotransformation: Compound NOT metabolized

###

Assay: The drug is tested on Providencia stuartii strain: ATCC25827 for biotransformation. The drug concentrations were measured before and after a 12-h incubation by liquid-chromatography-coupled mass spectrometry (LC–MS)
Conditions: 2 µM
measured.property: Bacterial Biotransformation

For orientation, consider the following solved cases.
> print(dat)
                                   compound            recorded.value
1  CNNCc1ccc(C(=O)NC(C)C)cc1 [PROCARBAZINE]  Compound NOT metabolized
2  COc1ccc(Cc2nccc3cc(OC)c(OC)cc23)cc1OC [PAPAVERINE]  Compound NOT metabolized
3  CN1CCC(=C2c3ccccc3CCc3cccnc32)CC1.O=C(O)/C=C\C(=O)O.O=C(O)/C=C\C(=O)O [AZATADINE MALEATE]  Compound NOT metabolized
4           CN1CCC(OC(c2ccccc2)c2ccccc2)CC1  Compound NOT metabolized
5  COC(=O)C(c1ccccc1)C1CCCCN1 (configuration not stated) [METHYLPHENIDATE]  Compound NOT metabolized
6  Br.COc1ccc2c(c1)[C@]13CCCC[C@@H]1[C@H](C2)N(C)CC3.O [DEXTROMETHORPHAN HYDROBROMIDE]  Compound NOT metabolized
7  N#Cc1ccc(C(c2ccc(C#N)cc2)n2cncn2)cc1 [LETROZOLE]  Compound NOT metabolized
8  CC[C@H](C)C(=O)O[C@H]1CCC=C2C=C[C@H](C)[C@H](CC[C@@H]3C[C@@H](O)CC(=O)O3)[C@H]21 [MEVASTATIN]      Compound metabolized

Sure, the documented Bacterial Biotransformation for CC(C)(C)NC(=O)[C@H]1CC[C@H]2[C@@H]3CC[C@H]4NC(=O)C=C[C@]4(C)[C@H]3CC[C@]12C [FINASTERIDE] is Compound NOT metabolized

###

Details: bacteroides stercoris, 12 h, 2 µM
Description: The drug is tested on Bacteroides stercoris strain: ATCC43183 for biotransformation. The drug concentrations were measured before and after a 12-h incubation by liquid-chromatography-coupled mass spectrometry (LC–MS)
measured.property: Bacterial Biotransformation

Example molecules with recorded Bacterial Biotransformation:
> print(dat)
                                   molecule            recorded.value
1  CCN1CCCC1CNC(=O)c1cc(S(N)(=O)=O)ccc1OC (stereo not drawn) [SULPIRIDE]  Compound NOT metabolized
2  CC(=O)OCC(=O)[C@@]1(O)[C@@H](C)C[C@H]2[C@@H]3CCC4=CC(=O)C=C[C@]4(C)[C@@]3(F)[C@@H](O)C[C@@]21C [BETAMETHASONE ACETATE]      Compound metabolized
3             Nc1nnc(-c2cccc(Cl)c2Cl)c(N)n1  Compound NOT metabolized
4  CN(C)CCOC(C)(c1ccccc1)c1ccccn1.O=C(O)CCC(=O)O (stereo not drawn) [DOXYLAMINE SUCCINATE]  Compound NOT metabolized
5   COC(=O)Nc1nc2ccc(C(=O)c3ccccc3)cc2[nH]1      Compound metabolized

Entry Cc1ccc(S(=O)(=O)NC(=O)NN2CCCCCC2)cc1 [TOLAZAMIDE] ; Bacterial Biotransformation = Compound metabolized

The molecule identified as CCCc1nc(C(C)(C)O)c(C(=O)OCc2oc(=O)oc2C)n1Cc1ccc(-c2ccccc2-c2nnn[nH]2)cc1 registered its Bacterial Biotransformation at Compound metabolized

Please fill in: Bacterial Biotransformation reported for Cc1nc2n(c(=O)c1CCN1CCC(c3noc4cc(F)ccc34)CC1)CCCC2 = Compound NOT metabolized
